TARGET SYSTEM: 5-hydroxytryptamine receptor 6 (Homo sapiens)
METHOD SUMMARY: Agonist activity at human 5HT6 expressed in HeLa cells assessed as intracellular cAMP level by radioimmunoassay
Please provide measured log10(EC50) for the entries that follow.
Please interpret these as log10 of EC50 where EC50 is in nM.

Given O=S(=O)(c1cccc(Cl)c1)c1cn(C2CCNC2)c2ncccc12 (stereo unspecified) , state its recorded log10(EC50).
3.23

Given O=S(=O)(c1ccc(Cl)s1)c1cn(C2CCCNC2)c2ncccc12 (stereo unspecified) , state its recorded log10(EC50).
1.99

Given O=S(=O)(c1ccc(C(F)(F)F)cc1)c1cn(C2CCCNC2)c2ncccc12 (stereo unspecified) , state its recorded log10(EC50).
2.62

Given O=S(=O)(c1cccc(C(F)(F)F)c1)c1cn(C2CCCNC2)c2ncccc12 (stereo unspecified) , state its recorded log10(EC50).
2.44

Given O=S(=O)(c1cccc(F)c1)c1cn(C2CCCNC2)c2ncccc12 (stereo unspecified) , state its recorded log10(EC50).
1.83

Given O=S(=O)(c1cn(C2CCNC2)c2ncccc12)c1c(Cl)nc2sccn12 (stereo unspecified) , state its recorded log10(EC50).
1.90

Given O=S(=O)(c1cn(C2CCCNC2)c2ncccc12)c1c(Cl)nc2sccn12 (stereo unspecified) , state its recorded log10(EC50).
1.82

Given O=S(=O)(c1ccccc1)c1cn(C2CCCNC2)c2ncccc12 (stereo unspecified) , state its recorded log10(EC50).
1.67

Given O=S(=O)(c1ccc(F)cc1)c1cn(C2CCNC2)c2ncccc12 (stereo unspecified) , state its recorded log10(EC50).
3.22

Given CN1CCC(n2cc(S(=O)(=O)c3ccccc3)c3cccnc32)C1 (stereo unspecified) , state its recorded log10(EC50).
3.31

Given CC(C)N1CCCC(n2cc(S(=O)(=O)c3cccc(F)c3)c3cccnc32)C1 (stereo unspecified) , state its recorded log10(EC50).
2.24

====

Entries with their measured pKi, system 5-hydroxytryptamine receptor 6 (Homo sapiens):
In plain terms, pKi is the concentration in mol/L turned into minus its base-10 logarithm.

# get_value(readout= pKi, system= 5-hydroxytryptamine receptor 6 (Homo sapiens)) for O=S(=O)(c1ccccc1Cl)c1cn(C2CCCNC2)c2ncccc12 (stereo not given)
8.43

# get_value(readout= pKi, system= 5-hydroxytryptamine receptor 6 (Homo sapiens)) for CN1CCC(n2cc(S(=O)(=O)c3ccccc3Cl)c3cccnc32)C1 (stereo not given)
8.66

# get_value(readout= pKi, system= 5-hydroxytryptamine receptor 6 (Homo sapiens)) for CC(C)N1CCCC(n2cc(S(=O)(=O)c3ccc(Cl)cc3)c3cccnc32)C1 (stereo not given)
7.95

# get_value(readout= pKi, system= 5-hydroxytryptamine receptor 6 (Homo sapiens)) for O=S(=O)(c1cccc(C(F)(F)F)c1)c1cn(C2CCNC2)c2ncccc12 (stereo not given)
8.89

# get_value(readout= pKi, system= 5-hydroxytryptamine receptor 6 (Homo sapiens)) for CN1CCC(n2cc(S(=O)(=O)c3ccc(F)cc3)c3cccnc32)C1 (stereo not given)
8.30

====

Please provide measured pIC50 for the entries that follow.
TARGET SYSTEM: 5-hydroxytryptamine receptor 6 (Homo sapiens, UniProt P50406)
Sequence (P50406 whole entry): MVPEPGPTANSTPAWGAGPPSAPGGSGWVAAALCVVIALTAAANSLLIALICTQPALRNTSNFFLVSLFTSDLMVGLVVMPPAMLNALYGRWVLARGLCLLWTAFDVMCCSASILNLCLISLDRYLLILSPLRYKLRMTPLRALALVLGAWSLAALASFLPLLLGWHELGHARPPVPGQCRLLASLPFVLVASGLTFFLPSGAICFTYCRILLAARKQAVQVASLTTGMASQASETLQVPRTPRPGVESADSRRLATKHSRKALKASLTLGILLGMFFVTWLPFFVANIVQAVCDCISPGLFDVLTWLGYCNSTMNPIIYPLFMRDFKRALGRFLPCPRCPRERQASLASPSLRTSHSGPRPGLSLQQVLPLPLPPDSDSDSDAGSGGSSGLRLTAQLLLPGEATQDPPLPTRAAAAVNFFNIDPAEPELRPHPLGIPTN
METHOD SUMMARY: Antagonist activity at human 5HT6 expressed in HeLa cells assessed as intracellular cAMP level by radioimmunoassay
In plain terms, pIC50 is the concentration in mol/L turned into minus its base-10 logarithm.

Given CCN1CCCC(n2cc(S(=O)(=O)c3ccc(Cl)cc3)c3cccnc32)C1 (stereo not drawn) , state its recorded pIC50.
7.15

Given O=S(=O)(c1ccc(Br)cc1)c1cn(C2CCNC2)c2ncccc12 (stereo not drawn) , state its recorded pIC50.
6.87

Given CN1CCC(n2cc(S(=O)(=O)c3ccccc3Cl)c3cccnc32)C1 (stereo not drawn) , state its recorded pIC50.
7.04

Given O=S(=O)(c1ccc(Cl)cc1)c1cn(C2CCNC2)c2ncccc12 (stereo not drawn) , state its recorded pIC50.
6.47

Given CC(C)N1CCCC(n2cc(S(=O)(=O)c3ccc(Cl)cc3)c3cccnc32)C1 (stereo not drawn) , state its recorded pIC50.
6.47

Given CN1CCC(n2cc(S(=O)(=O)c3ccccc3F)c3cccnc32)C1 (stereo not drawn) , state its recorded pIC50.
6.73

Given CCN1CCC(n2cc(S(=O)(=O)c3cccc(Cl)c3)c3cccnc32)C1 (stereo not drawn) , state its recorded pIC50.
6.92

Given O=S(=O)(c1cn(C2CCNC2)c2ncccc12)c1cccc2cccnc12 (stereo not drawn) , state its recorded pIC50.
6.19

Given CC(C)N1CCCC(n2cc(S(=O)(=O)c3cccc(Br)c3)c3cccnc32)C1 (stereo not drawn) , state its recorded pIC50.
6.31

Given CN1CCC(n2cc(S(=O)(=O)c3ccc(Cl)cc3)c3cccnc32)C1 (stereo not drawn) , state its recorded pIC50.
7.02

Given CCN1CCC(n2cc(S(=O)(=O)c3cccc(F)c3)c3cccnc32)C1 (stereo not drawn) , state its recorded pIC50.
6.88

Given O=S(=O)(c1ccccc1F)c1cn(C2CCCNC2)c2ncccc12 (stereo not drawn) , state its recorded pIC50.
7.30

Given CCN1CCC(n2cc(S(=O)(=O)c3c(Cl)nc4sccn34)c3cccnc32)C1 (stereo not drawn) , state its recorded pIC50.
8.00

Given CN1CCC(n2cc(S(=O)(=O)c3cccc(Cl)c3)c3cccnc32)C1 (stereo not drawn) , state its recorded pIC50.
6.85

Given CN1CCC(n2cc(S(=O)(=O)c3ccc(F)cc3)c3cccnc32)C1 (stereo not drawn) , state its recorded pIC50.
6.67

Given CN1CCCC(n2cc(S(=O)(=O)c3ccc(Cl)cc3)c3cccnc32)C1 (stereo not drawn) , state its recorded pIC50.
7.55

Given O=S(=O)(c1ccc(Cl)cc1)c1cn(C2CCCNC2)c2ncccc12 (stereo not drawn) , state its recorded pIC50.
6.17

Given CCN1CCC(n2cc(S(=O)(=O)c3ccccc3)c3cccnc32)C1 (stereo not drawn) , state its recorded pIC50.
7.25

Given CCN1CCCC(n2cc(S(=O)(=O)c3ccccc3)c3cccnc32)C1 (stereo not drawn) , state its recorded pIC50.
7.59

Given CN1CCC(n2cc(S(=O)(=O)c3cccc(Br)c3)c3cccnc32)C1 (stereo not drawn) , state its recorded pIC50.
7.64

Given CC(C)N1CCCC(n2cc(S(=O)(=O)c3c(Cl)nc4sccn34)c3cccnc32)C1 (stereo not drawn) , state its recorded pIC50.
8.10

Given O=S(=O)(c1ccccc1F)c1cn(C2CCNC2)c2ncccc12 (stereo not drawn) , state its recorded pIC50.
7.30

Given CN1CCC(n2cc(S(=O)(=O)c3c(Cl)nc4sccn34)c3cccnc32)C1 (stereo not drawn) , state its recorded pIC50.
7.59

Data provenance is ChEMBL document CHEMBL1149666.
